Data provenance is patent US20200087363A1.

# Experimental target: T1, HLA-B*44:05 (human)
# T1 construct: also called peptide-receptive MHC class I molecule
# Procedure details: UV peptide exchange, anti-b2m ELISA
The entries below are paired with their reported peptide exchange yield.

Binder: EESDYITHY
peptide exchange yield: 50 to 75%
--
Binder: SESKVFQLL
peptide exchange yield: 50 to 75%
--
Binder: SEENTGKTYF
peptide exchange yield: 50 to 75%

Value lookup for peptide exchange yield; key = "SESSSAFQF"
50 to 75%

Which peptide exchange yield reading was recorded for the binder "TEAQRLDCW" ?
50 to 75%

I would be grateful if you could share the reported peptide exchange yield for "EEFIGKIGI" .
20 to 50%

Requested field: peptide exchange yield. Item: "MEELRMLSF"
50 to 75%

May I ask what peptide exchange yield has been recorded for "EESSSPVDEY" ?
20 to 50%
